conditions: in ethyl acetate, 303.15 K
MEASUREMENT KIND: solubility (mole fraction)
API doc: respond with a numeric literal and nothing else, no unit.

Lookup result for `O=C(Nc1ccncc1)c1cc(C(=O)Nc2ccncc2)cc(C(=O)Nc2ccncc2)c1` ; measured solubility (mole fraction): 0.000153
